Attribution: ChEMBL document CHEMBL1131937

Biological target: Phenylethanolamine N-methyltransferase (Bos taurus, UniProt P10938)
Sequence (P10938 whole entry): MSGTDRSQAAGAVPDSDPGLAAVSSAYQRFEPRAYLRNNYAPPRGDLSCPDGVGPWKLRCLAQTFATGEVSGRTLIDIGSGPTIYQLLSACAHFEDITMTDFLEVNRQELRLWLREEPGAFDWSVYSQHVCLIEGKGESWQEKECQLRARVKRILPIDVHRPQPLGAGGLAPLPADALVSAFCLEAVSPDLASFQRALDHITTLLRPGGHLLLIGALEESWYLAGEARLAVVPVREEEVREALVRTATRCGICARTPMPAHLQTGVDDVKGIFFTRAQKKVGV
ASSAY_ENDPOINT: pKi
Lab note: report pKi as minus log10 of the concentration in molar units, number only.

Consider the following illustrative entries.
O=[N+]([O-])c1cc2c(c([N+](=O)[O-])c1)CCNC2 : 4.24
Cc1ccc2c(c1)CNCC2 : 5.57
C[C@H]1Cc2ccc(Cl)c(Cl)c2CN1 : 6.04
CN1CCc2ccccc2C1 : 4.30

## Input Would you please give the reported pKi of O=S(=O)(c1ccc2c(c1)CNCC2)C(Cl)(Cl)Cl with Phenylethanolamine N-methyltransferase (Bos taurus, UniProt P10938)?
## Output 5.90

---

Biological target: Adrenergic receptor alpha-2 (Rattus norvegicus, UniProt P22086+P19328+P22909)
Sequence (P22086 whole entry): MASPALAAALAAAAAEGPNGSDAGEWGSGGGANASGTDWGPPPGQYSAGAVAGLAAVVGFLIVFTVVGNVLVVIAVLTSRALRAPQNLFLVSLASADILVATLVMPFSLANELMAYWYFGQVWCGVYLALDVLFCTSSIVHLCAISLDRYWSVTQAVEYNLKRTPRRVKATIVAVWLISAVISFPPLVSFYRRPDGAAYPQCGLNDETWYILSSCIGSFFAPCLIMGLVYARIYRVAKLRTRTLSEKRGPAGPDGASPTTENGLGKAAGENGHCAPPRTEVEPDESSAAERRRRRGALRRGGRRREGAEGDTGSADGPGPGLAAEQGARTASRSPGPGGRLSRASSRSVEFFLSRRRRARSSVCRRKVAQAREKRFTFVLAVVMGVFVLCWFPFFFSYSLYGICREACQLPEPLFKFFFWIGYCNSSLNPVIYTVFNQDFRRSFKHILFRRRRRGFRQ
Sequence (P19328 whole entry): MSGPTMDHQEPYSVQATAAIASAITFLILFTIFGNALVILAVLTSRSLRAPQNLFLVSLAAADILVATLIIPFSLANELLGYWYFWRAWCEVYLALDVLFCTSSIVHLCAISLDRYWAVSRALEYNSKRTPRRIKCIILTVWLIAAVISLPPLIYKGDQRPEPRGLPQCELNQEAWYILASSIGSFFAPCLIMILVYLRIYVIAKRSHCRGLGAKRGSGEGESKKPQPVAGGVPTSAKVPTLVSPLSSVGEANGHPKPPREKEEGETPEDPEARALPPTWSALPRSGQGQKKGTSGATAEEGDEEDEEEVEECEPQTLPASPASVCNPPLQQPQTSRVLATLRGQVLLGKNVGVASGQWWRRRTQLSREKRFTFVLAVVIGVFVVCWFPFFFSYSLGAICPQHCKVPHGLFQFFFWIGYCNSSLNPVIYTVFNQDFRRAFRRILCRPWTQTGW
Sequence (P22909 whole entry): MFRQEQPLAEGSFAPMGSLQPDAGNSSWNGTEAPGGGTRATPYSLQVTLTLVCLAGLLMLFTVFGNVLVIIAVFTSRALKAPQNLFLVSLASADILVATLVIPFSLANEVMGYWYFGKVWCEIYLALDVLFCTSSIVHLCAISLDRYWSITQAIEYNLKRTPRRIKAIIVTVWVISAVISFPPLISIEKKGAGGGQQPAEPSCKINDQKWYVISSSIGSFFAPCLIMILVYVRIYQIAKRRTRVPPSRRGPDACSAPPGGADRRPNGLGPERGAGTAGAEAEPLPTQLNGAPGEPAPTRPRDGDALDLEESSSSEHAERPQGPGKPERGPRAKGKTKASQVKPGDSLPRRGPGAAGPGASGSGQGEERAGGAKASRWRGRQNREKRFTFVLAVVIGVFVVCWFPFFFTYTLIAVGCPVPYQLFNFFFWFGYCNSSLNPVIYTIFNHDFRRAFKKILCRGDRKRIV
Experiment: Inhibition of [3H]clonidine binding to the rat alpha-2-adrenoceptor
Format: protein assay
Design: unit not given here
ASSAY_ENDPOINT: Log Ki
// print number alone

Record excerpt, results attached:
Brc1ccc2c(c1)CNCCC2 : 5.05
C[C@@H](N)c1ccccc1 : 3.54
FC(F)(F)c1ccc2c(c1)CNCC2 : 5.89
COc1ccc2c(c1)CNCC2 : 6.33
c1ccc2c(c1)CCCNC2 : 4.97
OCc1ccc2c(c1)CNCC2 : 5.64

## Input Please list Log Ki recorded for the compound C[C@H](N)c1ccccc1
## Output 3.92

## Input Indicate the recorded Log Ki value for this compound: CSc1ccc2c(c1)CNCCC2
## Output 4.92

## Input Give Log Ki for the following compound: Clc1ccc2c(c1Cl)CNCCC2
## Output 5.39

## Input Using the record for O=[N+]([O-])c1ccc2c(c1)CNCCC2 , state its measured Log Ki.
## Output 4.18
